Where do the numbers come from? From patent US20150368338A1.

target: T1, human IFN-ω (human, UniProt P05000 24-195); test: ProteOn, one antigen concentration
T1 construct: also called interferon omega
Observed Property: pKd
# reply with the number alone; pKd is -log10 of concentration in mol/L

Worked examples, 6 binders total:
{"Binder": "IFWM3313 (antibody, V domains shown, VH IFWH591, VL IFWL1013; converted mAb; also called IFWB3048) VH: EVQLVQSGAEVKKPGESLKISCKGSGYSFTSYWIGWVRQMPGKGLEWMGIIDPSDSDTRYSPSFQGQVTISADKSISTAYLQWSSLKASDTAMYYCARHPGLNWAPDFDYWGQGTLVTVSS VL: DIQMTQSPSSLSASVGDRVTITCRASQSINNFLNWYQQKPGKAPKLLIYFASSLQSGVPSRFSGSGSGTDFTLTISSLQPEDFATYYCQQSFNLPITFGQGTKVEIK", "pKd": 10.25}
{"Binder": "IFWM3317 (antibody, V domains shown, VH IFWH591, VL IFWL1026; converted mAb; also called IFWB3052) VH: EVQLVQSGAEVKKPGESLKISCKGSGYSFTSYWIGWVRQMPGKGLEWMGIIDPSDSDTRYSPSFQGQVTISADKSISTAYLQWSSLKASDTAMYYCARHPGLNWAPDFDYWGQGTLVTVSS VL: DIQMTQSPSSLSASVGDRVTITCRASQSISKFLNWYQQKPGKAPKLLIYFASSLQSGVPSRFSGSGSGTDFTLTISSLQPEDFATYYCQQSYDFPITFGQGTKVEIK", "pKd": 10.80}
{"Binder": "IFWM3323 (antibody, V domains shown, VH IFWH591, VL IFWL1053; converted mAb; also called IFWB3058) VH: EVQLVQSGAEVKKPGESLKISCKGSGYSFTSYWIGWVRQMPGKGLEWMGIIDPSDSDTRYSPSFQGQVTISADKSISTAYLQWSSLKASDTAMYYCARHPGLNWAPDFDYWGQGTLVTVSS VL: DIQMTQSPSSLSASVGDRVTITCRASQSITNHLNWYQQKPGKAPKLLIYFASSLQSGVPSRFSGSGSGTDFTLTISSLQPEDFATYYCQQAHNFPLTFGQGTKVEIK", "pKd": 10.14}
{"Binder": "IFWM3352 (antibody, V domains shown, VH IFWH624, VL IFWL1013; converted mAb; also called IFWB3087) VH: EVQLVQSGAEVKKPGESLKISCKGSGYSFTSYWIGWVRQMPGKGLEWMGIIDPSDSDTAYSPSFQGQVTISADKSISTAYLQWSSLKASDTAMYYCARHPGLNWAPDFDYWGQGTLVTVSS VL: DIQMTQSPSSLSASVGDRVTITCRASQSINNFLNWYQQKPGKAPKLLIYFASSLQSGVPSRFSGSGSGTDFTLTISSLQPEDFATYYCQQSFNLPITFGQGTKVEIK", "pKd": 10.22}
{"Binder": "IFWM3340 (antibody, V domains shown, VH IFWH624, VL IFWL983; converted mAb; also called IFWB3075) VH: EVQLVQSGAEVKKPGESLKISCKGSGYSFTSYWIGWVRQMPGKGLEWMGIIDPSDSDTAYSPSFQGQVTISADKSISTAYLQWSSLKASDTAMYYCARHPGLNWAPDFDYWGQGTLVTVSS VL: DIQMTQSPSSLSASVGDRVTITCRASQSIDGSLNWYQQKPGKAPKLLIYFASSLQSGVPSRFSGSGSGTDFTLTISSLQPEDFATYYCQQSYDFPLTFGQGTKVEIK", "pKd": 11.40}
{"Binder": "IFWM3353 (antibody, V domains shown, VH IFWH624, VL IFWL1014; converted mAb; also called IFWB3088) VH: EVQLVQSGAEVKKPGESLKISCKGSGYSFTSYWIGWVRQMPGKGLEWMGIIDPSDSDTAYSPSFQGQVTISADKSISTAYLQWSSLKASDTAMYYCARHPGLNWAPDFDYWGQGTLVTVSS VL: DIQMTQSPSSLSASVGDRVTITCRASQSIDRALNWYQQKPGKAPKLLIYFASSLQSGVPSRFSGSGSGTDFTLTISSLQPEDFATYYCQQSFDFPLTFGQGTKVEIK", "pKd": 11.22}

Problem: Would you mind telling me what pKd value was observed for IFWM3325 (antibody, V domains shown, VH IFWH591, VL IFWL1060; converted mAb; also called IFWB3060) VH: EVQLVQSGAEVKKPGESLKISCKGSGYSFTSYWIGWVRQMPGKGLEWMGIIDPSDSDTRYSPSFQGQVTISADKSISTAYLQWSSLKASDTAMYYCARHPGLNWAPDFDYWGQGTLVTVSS VL: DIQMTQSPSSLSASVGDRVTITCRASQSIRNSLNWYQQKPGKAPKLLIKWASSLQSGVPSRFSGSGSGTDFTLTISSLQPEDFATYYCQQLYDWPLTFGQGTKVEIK ?
Solution: 10.96

Problem: Would you mind telling me what pKd value was observed for IFWM3314 (antibody, V domains shown, VH IFWH591, VL IFWL1014; converted mAb; also called IFWB3049) VH: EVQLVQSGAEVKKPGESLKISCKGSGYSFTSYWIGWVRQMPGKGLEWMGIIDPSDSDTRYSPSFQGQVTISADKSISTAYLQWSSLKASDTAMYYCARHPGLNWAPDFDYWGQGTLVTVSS VL: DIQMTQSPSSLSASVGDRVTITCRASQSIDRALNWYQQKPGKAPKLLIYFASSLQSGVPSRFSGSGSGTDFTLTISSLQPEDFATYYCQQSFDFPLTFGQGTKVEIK ?
Solution: 10.70

Problem: Would you mind telling me what pKd value was observed for IFWM3358 (antibody, V domains shown, VH IFWH624, VL IFWL1041; converted mAb; also called IFWB3093) VH: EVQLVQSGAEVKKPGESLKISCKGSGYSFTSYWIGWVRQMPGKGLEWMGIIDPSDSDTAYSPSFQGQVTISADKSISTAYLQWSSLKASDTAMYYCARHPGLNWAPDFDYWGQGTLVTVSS VL: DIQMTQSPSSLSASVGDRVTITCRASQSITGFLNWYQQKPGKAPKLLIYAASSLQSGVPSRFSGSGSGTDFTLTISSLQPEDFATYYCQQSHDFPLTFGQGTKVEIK ?
Solution: 10.74

Problem: Would you mind telling me what pKd value was observed for IFWM3308 (antibody, V domains shown, VH IFWH591, VL IFWL1004; converted mAb; also called IFWB3043) VH: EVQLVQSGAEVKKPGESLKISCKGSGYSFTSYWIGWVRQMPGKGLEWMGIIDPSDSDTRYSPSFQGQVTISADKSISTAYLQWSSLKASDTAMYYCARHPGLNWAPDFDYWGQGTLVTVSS VL: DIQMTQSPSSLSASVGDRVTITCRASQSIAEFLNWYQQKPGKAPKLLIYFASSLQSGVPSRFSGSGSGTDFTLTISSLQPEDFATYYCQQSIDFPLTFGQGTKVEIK ?
Solution: 10.42
